Values compiled from the supplement of paper PMC10567573.

B1: CRYL1 (parent)
chain: RNALENIRKEMKLLEQAGSLKGSL

Variants of: B1
Experiment: protein stability index of a GFP-peptide fusion (GPS, HEK-293T) (PSI 1-6); higher = more stable;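 also: lentivirally expressed fusions sorted by FACS into six bins by GFP to DsRed ratio, PSI derived from sequencing read proportions per bin multiplied by bin number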
Conditions: c terminus: a fixed tail appended
Readings of protein stability index for the listed variants
Parameter measured: protein stability index

sequence_code="RNALENIVKEMKLLEQAGSLKGSL [R8V]" parameter_measured="protein stability index" measured_value=3.25
sequence_code="RNALEAIRKEMKLLEQAGSLKGSL [N6A]" parameter_measured="protein stability index" measured_value=3.66
sequence_code="RNALENIRKTMKLLEQAGSLKGSL [E10T]" parameter_measured="protein stability index" measured_value=2.39
sequence_code="RNALENIRKEMKLLEQAGSLGGSL [K21G]" parameter_measured="protein stability index" measured_value=2.56
sequence_code="RNALENIRKEMKLLENAGSLKGSL [Q16N]" parameter_measured="protein stability index" measured_value=3.75
sequence_code="RNALYNIRKEMKLLEQAGSLKGSL [E5Y]" parameter_measured="protein stability index" measured_value=1.97
sequence_code="RFALENIRKEMKLLEQAGSLKGSL [N2F]" parameter_measured="protein stability index" measured_value=2.87
sequence_code="RTALENIRKEMKLLEQAGSLKGSL [N2T]" parameter_measured="protein stability index" measured_value=2.92
sequence_code="RNALENHRKEMKLLEQAGSLKGSL [I7H]" parameter_measured="protein stability index" measured_value=3.74
sequence_code="RNALENIRKEMKLLEQKGSLKGSL [A17K]" parameter_measured="protein stability index" measured_value=3.51
sequence_code="RNALENIRKEMKLLEQAGSLTGSL [K21T]" parameter_measured="protein stability index" measured_value=3.6
sequence_code="RNALEFIRKEMKLLEQAGSLKGSL [N6F]" parameter_measured="protein stability index" measured_value=1.68
sequence_code="RNALENIRKEMHLLEQAGSLKGSL [K12H]" parameter_measured="protein stability index" measured_value=3.46
sequence_code="RNALENIRKEMKYLEQAGSLKGSL [L13Y]" parameter_measured="protein stability index" measured_value=2.98
sequence_code="RNALENISKEMKLLEQAGSLKGSL [R8S]" parameter_measured="protein stability index" measured_value=3.87
sequence_code="RNADENIRKEMKLLEQAGSLKGSL [L4D]" parameter_measured="protein stability index" measured_value=5
sequence_code="RNALENIRKEMKLLEQDGSLKGSL [A17D]" parameter_measured="protein stability index" measured_value=3.97
sequence_code="RNALENIRKELKLLEQAGSLKGSL [M11L]" parameter_measured="protein stability index" measured_value=3.1
sequence_code="RNALENIRKEMKLLEQAGSLKGQL [S23Q]" parameter_measured="protein stability index" measured_value=3.32
sequence_code="RNALENIRKEMKLLEQAESLKGSL [G18E]" parameter_measured="protein stability index" measured_value=3.58
sequence_code="RNALENIRKEMKLLEQMGSLKGSL [A17M]" parameter_measured="protein stability index" measured_value=3.32
sequence_code="RNALENIRKEMWLLEQAGSLKGSL [K12W]" parameter_measured="protein stability index" measured_value=1.72
sequence_code="RNALENIRKEMMLLEQAGSLKGSL [K12M]" parameter_measured="protein stability index" measured_value=2.89
sequence_code="RNALENIRKEMKTLEQAGSLKGSL [L13T]" parameter_measured="protein stability index" measured_value=3.04
